# maps each entry to its GI50
System: HCC827
Assay: Cytotoxicity against human HCC827 cells assessed as growth inhibition after 72 hrs by resazurin dye-based fluorescence analysis
Format: functional
Details: HCC827, 72 h
readoutLabel: GI50 (µM)

N[C@H]1CC[C@H](Nc2nc(Nc3ccc(-n4cncn4)cc3)c3ncn(C4CCCC4)c3n2)CC1    1.42
OCCCNc1nc(Nc2ccc(Oc3nccs3)cc2)c2ncn(C3CCCC3)c2n1    6.49
OCCCCNc1nc(Nc2ccc(CN3CCOCC3)cc2)c2ncn(C3CCCC3)c2n1    2.51
NCCCCNc1nc(Nc2ccc(CN3CCOCC3)cc2)c2ncn(CCCO)c2n1    19
N[C@H]1CC[C@H](Nc2nc(Nc3ccc(CN4CCOCC4)cc3)c3ncn(C4CCC(O)C4)c3n2)CC1 (stereo partly drawn)    0.801
NCCCCNc1nc(Nc2ccc(CN3CCOCC3)cc2)c2ncn(C3CCC(O)C3)c2n1 (stereo not drawn)    3.23
N[C@H]1CC[C@H](Nc2nc(Nc3ccc(Oc4nccs4)cc3)c3ncn(C4CCCC4)c3n2)CC1    0.692
OCCCCNc1nc(Nc2ccc(CN3CCOCC3)cc2)c2ncn(C3CCC(O)C3)c2n1 (stereo not drawn)    3.26

---

Target: Platelet-derived growth factor receptor alpha (Homo sapiens, UniProt P16234, V561D)
Sequence (P16234 24-1089 V561D limits assumed): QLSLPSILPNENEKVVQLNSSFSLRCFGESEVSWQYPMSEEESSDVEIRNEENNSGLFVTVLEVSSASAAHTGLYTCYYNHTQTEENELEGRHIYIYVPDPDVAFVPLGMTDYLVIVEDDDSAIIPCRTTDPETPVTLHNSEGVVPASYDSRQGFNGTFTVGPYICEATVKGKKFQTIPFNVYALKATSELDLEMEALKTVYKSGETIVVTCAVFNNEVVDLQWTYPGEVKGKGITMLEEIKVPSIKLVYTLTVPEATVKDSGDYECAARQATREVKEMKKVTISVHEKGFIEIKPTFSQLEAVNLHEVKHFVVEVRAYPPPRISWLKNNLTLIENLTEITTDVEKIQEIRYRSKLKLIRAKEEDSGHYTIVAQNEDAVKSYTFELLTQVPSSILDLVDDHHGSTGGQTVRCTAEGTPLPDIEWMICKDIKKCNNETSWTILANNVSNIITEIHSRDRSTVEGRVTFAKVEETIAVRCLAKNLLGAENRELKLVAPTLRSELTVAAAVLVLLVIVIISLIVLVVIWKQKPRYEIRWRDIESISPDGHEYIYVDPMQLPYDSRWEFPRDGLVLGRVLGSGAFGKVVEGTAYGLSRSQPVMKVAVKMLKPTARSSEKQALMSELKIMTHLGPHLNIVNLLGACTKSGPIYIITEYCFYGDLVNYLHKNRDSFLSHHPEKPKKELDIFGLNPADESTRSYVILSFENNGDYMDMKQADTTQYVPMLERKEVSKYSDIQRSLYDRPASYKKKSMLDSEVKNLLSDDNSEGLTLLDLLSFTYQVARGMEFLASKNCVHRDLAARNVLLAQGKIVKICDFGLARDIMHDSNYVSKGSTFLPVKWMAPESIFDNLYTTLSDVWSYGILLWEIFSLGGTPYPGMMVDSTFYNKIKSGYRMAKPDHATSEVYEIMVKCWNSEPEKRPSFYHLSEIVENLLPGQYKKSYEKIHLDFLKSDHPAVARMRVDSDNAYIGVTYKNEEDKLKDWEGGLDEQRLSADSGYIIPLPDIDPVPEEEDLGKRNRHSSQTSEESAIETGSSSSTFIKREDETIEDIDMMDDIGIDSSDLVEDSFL
Assay: biochemical
Items are presented alongside their recorded IC50.
readoutLabel: IC50

N[C@H]1CC[C@H](Nc2nc(Nc3ccccc3CN3CCOCC3)c3ncn(C4CCCC4)c3n2)CC1    > 20 µM
NCCCCNc1nc(Nc2ccccc2CN2CCOCC2)c2ncn(C3CCCC3)c2n1    > 20 µM
N[C@H]1CC[C@H](Nc2nc(Nc3ccccc3CN3CCOCC3)c3ncn(CCCO)c3n2)CC1    > 20 µM

---

Tested on: HCC827
Assay: Cytotoxicity against human HCC827 cells assessed as growth inhibition after 72 hrs by resazurin dye-based fluorescence analysis
Assay type: functional
Conditions: HCC827, 72 h
Each entry below lists one item and its recorded log10(GI50) value.
readoutLabel: log10(GI50) (log10 of the value in µM)

OCCCCNc1nc(Nc2ccc(N3CCN(Cc4ccccc4)CC3)cc2)c2ncn(CCCO)c2n1    0.99
NCCCCNc1nc(Nc2ccc(Oc3nccs3)cc2)c2ncn(C3CCCC3)c2n1    0.80
N[C@H]1CC[C@H](Nc2nc(Nc3ccc(-c4cccs4)nc3)c3ncn(C4CCCC4)c3n2)CC1    -0.19
OCCCCNc1nc(Nc2cccc(CN3CCOCC3)c2)c2ncn(C3CCCC3)c2n1    0.91
COc1ccc(-c2ccc(Nc3nc(N[C@H]4CC[C@H](N)CC4)nc4c3ncn4C3CCCC3)cn2)cc1    -0.24
N[C@H]1CC[C@H](Nc2nc(Nc3ccc(-n4cccn4)cc3)c3ncn(C4CCCC4)c3n2)CC1    -0.07
N[C@H]1CC[C@H](Nc2nc(Nc3ccc(N4CCN(Cc5ccccc5)CC4)cc3)c3ncn(C4CCCC4)c3n2)CC1    -0.04
NCCCCNc1nc(Nc2cccc(CN3CCOCC3)c2)c2ncn(C3CCCC3)c2n1    0.73
N[C@H]1CC[C@H](Nc2nc(Nc3ccc(-c4ccccc4O)nc3)c3ncn(C4CCCC4)c3n2)CC1    -0.19
N[C@H]1CC[C@H](Nc2nc(Nc3cccc(CN4CCOCC4)c3)c3ncn(CCCO)c3n2)CC1    1.41
N[C@H]1CC[C@H](Nc2nc(Nc3ccc(-c4ccccc4O)cc3)c3ncn(C4CCCC4)c3n2)CC1    0.40
N[C@H]1CC[C@H](Nc2nc(Nc3cccc(CN4CCOCC4)c3)c3ncn(C4CCC(O)C4)c3n2)CC1 (stereo partly drawn)    0.22
N[C@H]1CC[C@H](Nc2nc(Nc3ccc(N4CCN(Cc5ccccc5)CC4)cc3)c3ncn(C4CCC(O)C4)c3n2)CC1 (stereo partly drawn)    -0.08
N[C@H]1CC[C@H](Nc2nc(Nc3ccc(-n4cnnc4)cc3)c3ncn(C4CCCC4)c3n2)CC1    -0.06
c1csc(Oc2ccc(Nc3nc(N4CCOCC4)nc4c3ncn4C3CCCC3)cc2)n1    1.19
NCCCCNc1nc(Nc2ccc(N3CCN(Cc4ccccc4)CC3)cc2)c2ncn(C3CCC(O)C3)c2n1 (stereo not drawn)    0.36

---

Assay: Cytotoxicity against human BJ cells assessed as growth inhibition after 72 hrs by resazurin dye-based fluorescence analysis
Assay type: cell-based
readoutLabel: GI50 at 72 h (µM)

NCCCCNc1nc(Nc2ccc(CN3CCOCC3)cc2)c2ncn(CCCO)c2n1    35
NCCCCNc1nc(Nc2ccccc2CN2CCOCC2)c2ncn(C3CCCC3)c2n1    37.5
N[C@H]1CC[C@H](Nc2nc(Nc3ccc(-n4cncn4)cc3)c3ncn(C4CCCC4)c3n2)CC1    14.7
COc1ccccc1-c1ccc(Nc2nc(N[C@H]3CC[C@H](N)CC3)nc3c2ncn3C2CCCC2)cn1    6.2

---

Assay: Cytotoxicity against human BJ cells assessed as growth inhibition after 72 hrs by resazurin dye-based fluorescence analysis
Format: cell-based
Measured GI50 at 72 h values are reported for all entries that follow.
readoutLabel: GI50 at 72 h (µM)

OCCCCNc1nc(Nc2ccc(CN3CCOCC3)cc2)c2ncn(CCCO)c2n1    20.8
N[C@H]1CC[C@H](Nc2nc(Nc3ccc(N4CCN(Cc5ccccc5)CC4)cc3)c3ncn(CCCO)c3n2)CC1    16.5
N[C@H]1CC[C@H](Nc2nc(Nc3ccc(N4CCN(Cc5ccccc5)CC4)cc3)c3ncn(C4CCC(O)C4)c3n2)CC1 (some centres not stated)    16.9
N[C@H]1CC[C@H](Nc2nc(Nc3ccc(-c4ccccc4O)nc3)c3ncn(C4CCCC4)c3n2)CC1    6.35
N[C@H]1CC[C@H](Nc2nc(Nc3cccc(CN4CCOCC4)c3)c3ncn(C4CCCC4)c3n2)CC1    14.7
OCCCCNc1nc(Nc2ccc(N3CCN(Cc4ccccc4)CC3)cc2)c2ncn(C3CCC(O)C3)c2n1 (configuration not stated)    23.8
N[C@H]1CC[C@H](Nc2nc(Nc3ccc(N4CCN(Cc5ccccc5)CC4)cc3)c3ncn(C4CCCC4)c3n2)CC1    10
N[C@H]1CC[C@H](Nc2nc(Nc3ccccc3CN3CCOCC3)c3ncn(C4CCCC4)c3n2)CC1    30.4
COc1ccccc1-c1ccc(Nc2nc(N[C@H]3CC[C@H](N)CC3)nc3c2ncn3C2CCCC2)cc1    22.8
N[C@H]1CC[C@H](Nc2nc(Nc3ccc(-c4cccs4)nc3)c3ncn(C4CCCC4)c3n2)CC1    2.94
N[C@H]1CC[C@H](Nc2nc(Nc3ccc(-c4ccoc4)nc3)c3ncn(C4CCCC4)c3n2)CC1    13.1
N[C@H]1CC[C@H](Nc2nc(Nc3ccc(Oc4nccs4)cc3)c3ncn(C4CCCC4)c3n2)CC1    6.85
OCCCCNc1nc(Nc2ccc(Oc3nccs3)cc2)c2ncn(C3CCCC3)c2n1    23.5

---

Test: Cytotoxicity against human CEM cells assessed as growth inhibition after 72 hrs by resazurin dye-based fluorescence analysis
Assay type: cell-based
Conditions: CEM (CCRF-CEM) cells
Class definitions on GI50 at 72 h: lower segment (below 0.9 µM), middle segment (0.9 µM to below 6 µM), upper segment (6 µM or more)

N[C@H]1CC[C@H](Nc2nc(Nc3ccc(CN4CCOCC4)cc3)c3ncn(CCCO)c3n2)CC1    upper segment
NCCCCNc1nc(Nc2ccc(CN3CCOCC3)cc2)c2ncn(C3CCCC3)c2n1    middle segment
Cc1ccc(NC(=O)c2ccc(CN3CCN(C)CC3)cc2)cc1Nc1nccc(-c2cccnc2)n1    upper segment
OCCCNc1nc(Nc2ccc(Oc3nccs3)cc2)c2ncn(C3CCCC3)c2n1    upper segment
COc1ccccc1-c1ccc(Nc2nc(N[C@H]3CC[C@H](N)CC3)nc3c2ncn3C2CCCC2)cn1    lower segment
N[C@H]1CC[C@H](Nc2nc(Nc3ccc(CN4CCOCC4)cc3)c3ncn(C4CCCC4)c3n2)CC1    lower segment
OCCCCNc1nc(Nc2ccc(Oc3nccs3)cc2)c2ncn(C3CCCC3)c2n1    upper segment
OCCCCNc1nc(Nc2ccc(N3CCN(Cc4ccccc4)CC3)cc2)c2ncn(CCCO)c2n1    upper segment
N[C@H]1CC[C@H](Nc2nc(Nc3ccc(N4CCN(Cc5ccccc5)CC4)cc3)c3ncn(CCCO)c3n2)CC1    middle segment
NCCCCNc1nc(Nc2ccc(CN3CCOCC3)cc2)c2ncn(CCCO)c2n1    upper segment
N[C@H]1CC[C@H](Nc2nc(Nc3ccc(N4CCN(Cc5ccccc5)CC4)cc3)c3ncn(C4CCCC4)c3n2)CC1    lower segment
NCCCCNc1nc(Nc2cccc(CN3CCOCC3)c2)c2ncn(C3CCCC3)c2n1    upper segment
N[C@H]1CC[C@H](Nc2nc(Nc3ccc(N4CCN(Cc5ccccc5)CC4)cc3)c3ncn(C4CCC(O)C4)c3n2)CC1 (stereo not given in full)    lower segment
NCCCCNc1nc(Nc2ccc(N3CCN(Cc4ccccc4)CC3)cc2)c2ncn(C3CCC(O)C3)c2n1 (stereo not given)    middle segment
N[C@H]1CC[C@H](Nc2nc(Nc3ccc(-n4cccn4)cc3)c3ncn(C4CCCC4)c3n2)CC1    middle segment
N[C@H]1CC[C@H](Nc2nc(Nc3ccc(-c4ccoc4)nc3)c3ncn(C4CCCC4)c3n2)CC1    lower segment
COc1ccc(-c2ccc(Nc3nc(N[C@H]4CC[C@H](N)CC4)nc4c3ncn4C3CCCC3)cn2)cc1    lower segment
N[C@H]1CC[C@H](Nc2nc(Nc3cccc(CN4CCOCC4)c3)c3ncn(CCCO)c3n2)CC1    upper segment
N[C@H]1CC[C@H](Nc2nc(Nc3ccccc3CN3CCOCC3)c3ncn(CCCO)c3n2)CC1    upper segment
CC(C)(C)c1cc(NC(=O)Nc2ccc(-c3cn4c(n3)sc3cc(OCCN5CCOCC5)ccc34)cc2)no1    upper segment
Nc1ccccc1-c1ccc(Nc2nc(N[C@H]3CC[C@H](N)CC3)nc3c2ncn3C2CCCC2)cc1    lower segment
N[C@H]1CC[C@H](Nc2nc(Nc3ccc(-n4cncn4)cc3)c3ncn(C4CCCC4)c3n2)CC1    lower segment
N[C@H]1CC[C@H](Nc2nc(Nc3ccccc3CN3CCOCC3)c3ncn(C4CCCC4)c3n2)CC1    upper segment
N[C@H]1CC[C@H](Nc2nc(Nc3ccc(-c4ccccc4O)cc3)c3ncn(C4CCCC4)c3n2)CC1    middle segment
NCCCCNc1nc(Nc2ccc(CN3CCOCC3)cc2)c2ncn(C3CCC(O)C3)c2n1 (stereo not given)    middle segment
N[C@H]1CC[C@H](Nc2nc(Nc3ccc(-n4cnnc4)cc3)c3ncn(C4CCCC4)c3n2)CC1    lower segment
c1csc(Oc2ccc(Nc3nc(N4CCOCC4)nc4c3ncn4C3CCCC3)cc2)n1    upper segment
N[C@H]1CC[C@H](Nc2nc(Nc3ccc(CN4CCOCC4)cc3)c3ncn(C4CCC(O)C4)c3n2)CC1 (stereo not given in full)    middle segment
N[C@H]1CC[C@H](Nc2nc(Nc3ccc(-c4ccccc4O)nc3)c3ncn(C4CCCC4)c3n2)CC1    lower segment
OCCCCNc1nc(Nc2ccc(CN3CCOCC3)cc2)c2ncn(C3CCCC3)c2n1    middle segment
OCCCCNc1nc(Nc2ccc(N3CCN(Cc4ccccc4)CC3)cc2)c2ncn(C3CCC(O)C3)c2n1 (stereo not given)    upper segment
N[C@H]1CC[C@H](Nc2nc(Nc3cccc(CN4CCOCC4)c3)c3ncn(C4CCCC4)c3n2)CC1    middle segment
N[C@H]1CC[C@H](Nc2nc(Nc3ccc(-c4cccs4)nc3)c3ncn(C4CCCC4)c3n2)CC1    lower segment
NCCCCNc1nc(Nc2ccccc2CN2CCOCC2)c2ncn(C3CCCC3)c2n1    upper segment
